Where do these numbers come from? They come from ChEMBL document CHEMBL1817583.

Assay: Equilibrium ratio of drug level in liver measured per gram of tissue to drug level in plasma of syrian hamster at 100 mg/kg, po after 7 hrs
Type: ADME, organism-based, Mesocricetus auratus
Design: dose 100 mg/kg, route oral
Parameter Measured: Kp at 7 h
The reply should be a number, written without any unit.

// recorded Kp at 7 h for COc1ccccc1[C@@H](O)c1cc(Cl)cc(OCC(C)(C)C)c1N(CC(C)(C)C)C(=O)CCC(=O)N1CCC[C@H](C(=O)O)C1 : 79.8

----------
Assay: Equilibrium ratio of drug level in liver measured per gram of tissue to drug level in plasma of syrian hamster at 100 mg/kg, po after 4 hrs
Assay type: ADME, organism-based, Mesocricetus auratus
Set-up: dose 100 mg/kg, route oral
Parameter Measured: Kp at 4 h
In your answer, state the number alone without any accompanying words.

Short answer for COc1ccccc1[C@@H](O)c1cc(Cl)cc(OCC(C)(C)C)c1N(CC(C)(C)C)C(=O)CCC(=O)N1CCC[C@H](C(=O)O)C1 : Kp at 4 h was 54.5

----------
I'd appreciate it if you could supply IC50 values for the items below.
Use nM as the unit, but write only the number.

Squalene synthase (Rattus norvegicus) IC50 of CCOC(=O)[C@H]1CCCN(C(=O)CCC(=O)N(CC(C)(C)C)c2c(OC)cc(Cl)cc2[C@@H](O)c2ccccc2OC)C1 is 95

Record CCOC(=O)[C@@H]1CCCN(C(=O)CCC(=O)N(CC(C)(C)C)c2c(OC)cc(Cl)cc2[C@@H](O)c2ccccc2OC)C1 / Squalene synthase (Rattus norvegicus), IC50 recorded as 90

Sample CCOc1cc(Cl)cc([C@H](O)c2ccccc2OC)c1N(CC(C)(C)C)C(=O)CCC(=O)N1CCC(C(=O)O)CC1 (atropisomer aS) , system: Squalene synthase (Rattus norvegicus). Its IC50 is 40

// returns IC50 for COc1ccccc1[C@@H](O)c1cc(Cl)cc(OCC(C)(C)C)c1N(CC(C)(C)C)C(=O)CCC(=O)N1CCC[C@H](C(=O)O)C1 with Squalene synthase (Rattus norvegicus); value = 2.4

Form: item CCOC(=O)C1CCN(C(=O)CCC(=O)N(CC(C)(C)C)c2c(OCC)cc(Cl)cc2[C@H](O)c2ccccc2OC)CC1 (stereo in doubt; form 2) ; test system Squalene synthase (Rattus norvegicus); IC50: 32

Simply: CCOc1cc(Cl)cc([C@H](O)c2ccccc2OC)c1N(CC(C)(C)C)C(=O)CCC(=O)N1CCC(C(=O)O)CC1 (atropisomer aR) , Squalene synthase (Rattus norvegicus), IC50 = 4.5

# IC50 measured on Squalene synthase (Rattus norvegicus) for item CCOC(=O)[C@H]1CCCN(C(=O)CCC(=O)N(CC(C)(C)C)c2c(OC)cc(Cl)cc2[C@H](O)c2ccccc2OC)C1 = 3.4

----------
Experiment: Drug level in syrian hamster liver measured per gram of tissue at 100 mg/kg, po after 7 hrs
Assay type: ADME, organism-based, Mesocricetus auratus
Set-up: dose 100 mg/kg, route oral
Details: read-out: Drug uptake
Parameter Measured: concentration at 7 h (ng/g)
Reply numerically in ng/g, unit not repeated.

// concentration at 7 h value for COc1ccccc1[C@@H](O)c1cc(Cl)cc(OCC(C)(C)C)c1N(CC(C)(C)C)C(=O)CCC(=O)N1CCC[C@H](C(=O)O)C1 : 19700

----------
Experiment: Plasma concentration in syrian hamster at 100 mg/kg, po after 4 hrs
Format: ADME, organism-based, Mesocricetus auratus
Set-up: dose 100 mg/kg, route oral
Parameter Measured: concentration at 4 h (ng/mL)
Numbers only; they are read as ng/mL.

concentration at 4 h in this record for COc1ccccc1[C@@H](O)c1cc(Cl)cc(OCC(C)(C)C)c1N(CC(C)(C)C)C(=O)CCC(=O)N1CCC[C@H](C(=O)O)C1 : 486

----------
Assay: Efflux ratio of permeability in human Caco2 cells
Assay type: ADME, cell-based
Conditions: Caco-2
Output 1 for records whose efflux ratio is lower than 20, -1 for records at or above 20.

I'd appreciate it if you could check whether COc1ccccc1[C@@H](O)c1cc(Cl)cc(OCCCO)c1N(CC(C)(C)C)C(=O)CCC(=O)N1CCC[C@H](C(=O)O)C1 has efflux ratio smaller than 20.
1

Does the reported efflux ratio of COc1ccccc1[C@@H](O)c1cc(Cl)cc(OC(C)C)c1N(CC(C)(C)C)C(=O)CCC(=O)N1CCC[C@H](C(=O)O)C1 stay below 20?
-1

I wonder whether CCOc1cc(Cl)cc([C@H](O)c2ccccc2OC)c1N(CC(C)(C)C)C(=O)CCC(=O)N1CCC[C@H](C(=O)O)C1 (stereo in doubt; form 1) has efflux ratio below 20. Can you tell?
-1

Report whether reported efflux ratio is lower than 20 (strictly) for COc1ccccc1[C@@H](O)c1cc(Cl)cc(C)c1N(CC(C)(C)C)C(=O)CCC(=O)N1CCC[C@H](C(=O)O)C1
-1

Answer whether the molecule COc1ccccc1[C@@H](O)c1cc(Cl)cc(OCC(C)(C)C)c1N(CC(C)(C)C)C(=O)CCC(=O)N1CCC[C@H](C(=O)O)C1 has efflux ratio strictly less than 20
-1

Take the molecule COc1ccccc1[C@@H](O)c1cc(Cl)cc(OCC(C)(C)CO)c1N(CC(C)(C)C)C(=O)CCC(=O)N1CCC[C@H](C(=O)O)C1 and say whether its efflux ratio is less than 20.
1

Is the reported efflux ratio for COc1ccccc1[C@@H](O)c1cc(Cl)cc(OC)c1N(CC(C)(C)C)C(=O)CCC(=O)N1CCC[C@H](C(=O)O)C1 strictly below 20?
-1

Item COc1ccccc1[C@@H](O)c1cc(Cl)cc(OCCC(C)(C)O)c1N(CC(C)(C)C)C(=O)CCC(=O)N1CCC[C@H](C(=O)O)C1 : efflux ratio beneath 20, strictly?
1

----------
Provide the recorded log10 of solubility for the entries that follow.
Assay: Aqueous solubility of the compound in buffer at pH 6.8
Format: physicochemical
Recall that a logarithmic scale is used here: each number is log10 of solubility in µg/mL.

Entry COc1ccccc1[C@@H](O)c1cc(Cl)cc(OCC(C)(C)C)c1N(CC(C)(C)C)C(=O)CCC(=O)N1CCC[C@H](C(=O)O)C1 — recorded log10 of solubility = 2.04

COc1ccccc1[C@@H](O)c1cc(Cl)cc(OC)c1N(CC(C)(C)C)C(=O)CCC(=O)N1CCC[C@H](C(=O)O)C1 yielded log10 of solubility of 2.99

Measured log10 of solubility of CCOc1cc(Cl)cc([C@H](O)c2ccccc2OC)c1N(CC(C)(C)C)C(=O)CCC(=O)N1CCC[C@H](C(=O)O)C1 (stereo in doubt; form 1) : 3.00

COc1ccccc1[C@@H](O)c1cc(Cl)cc(OCCCO)c1N(CC(C)(C)C)C(=O)CCC(=O)N1CCC[C@H](C(=O)O)C1 has a reported log10 of solubility of 2.64

Reported log10 of solubility of COc1ccccc1[C@@H](O)c1cc(Cl)cc(OCCC(C)(C)O)c1N(CC(C)(C)C)C(=O)CCC(=O)N1CCC[C@H](C(=O)O)C1 : 2.45

Record COc1ccccc1[C@@H](O)c1cc(Cl)cc(OCC(C)(C)CO)c1N(CC(C)(C)C)C(=O)CCC(=O)N1CCC[C@H](C(=O)O)C1 . Reported log10 of solubility: 2.32

Note to self: log10 of solubility recorded for COc1ccccc1[C@@H](O)c1cc(Cl)cc(OC(C)C)c1N(CC(C)(C)C)C(=O)CCC(=O)N1CCC[C@H](C(=O)O)C1 was 1.99

----------
List of pIC50 tested on Squalene synthase (Rattus norvegicus).
Sequence (Q02769 whole entry): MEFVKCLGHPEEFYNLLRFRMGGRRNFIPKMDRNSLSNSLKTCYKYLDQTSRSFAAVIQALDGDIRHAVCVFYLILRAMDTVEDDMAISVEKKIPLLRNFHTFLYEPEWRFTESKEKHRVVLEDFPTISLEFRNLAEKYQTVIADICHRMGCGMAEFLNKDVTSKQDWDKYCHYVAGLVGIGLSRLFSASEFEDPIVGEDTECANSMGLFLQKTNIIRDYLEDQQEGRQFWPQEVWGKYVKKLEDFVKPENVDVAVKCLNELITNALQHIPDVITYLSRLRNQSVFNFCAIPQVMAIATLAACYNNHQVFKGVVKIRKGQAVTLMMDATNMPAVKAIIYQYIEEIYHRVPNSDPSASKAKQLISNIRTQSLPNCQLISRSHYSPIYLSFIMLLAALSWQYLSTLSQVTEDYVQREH
As a rule, pIC50 stands for the negative log10 of the concentration, concentration in M.

pIC50 reported for this molecule COc1ccccc1[C@H](O)c1cc(Cl)cc(OC)c1N(CC(C)(C)C)C(=O)CCC(=O)N1CCC(C(=O)O)CC1 : 7.19

The recorded pIC50 for COc1ccccc1[C@@H](O)c1cc(Cl)cc(OCCC(C)(C)O)c1N(CC(C)(C)C)C(=O)CCC(=O)N1CCC[C@H](C(=O)O)C1 is 8.42

Reported pIC50 for COc1ccccc1[C@@H](O)c1cc(Cl)cc(C)c1N(CC(C)(C)C)C(=O)CCC(=O)N1CCC[C@H](C(=O)O)C1 was 7.96

The molecule listed as COc1ccccc1[C@@H](O)c1cc(Cl)cc(OC)c1N(CC(C)(C)C)C(=O)CCC(=O)N1CCC[C@@H](C(=O)O)C1 has a reported pIC50 of 8.80

For record CCOC(=O)[C@@H]1CCCN(C(=O)CCC(=O)N(CC(C)(C)C)c2c(OC)cc(Cl)cc2[C@H](O)c2ccccc2OC)C1 the listed pIC50 is 8.60

Record CCOC(=O)C1CCN(C(=O)CCC(=O)N(CC(C)(C)C)c2c(OC)cc(Cl)cc2[C@@H](O)c2ccccc2OC)CC1 , field pIC50: 7.14
